IC50: recorded values
Test system: BT-20
Assay: 3D spheroid assay BT-20
Assay type: cell-based
Details: Homo sapiens, 96 h; BT-20, 4 days treatment; read-out: IC50 3D spheroid cell viability

Here is how some compounds turned out for IC50.
[[record]]
compound = "CONC(=O)c1ccccc1Nc1cc(Nc2cc(C)nn2C(C)C)ncc1Cl"
measure = "IC50"
result = "> 10 µM"

[[record]]
compound = "CNC(=O)c1cccc(C)c1Nc1nc(Nc2ccc(N3CCN(C4C5CC6CC4CC(O)(C6)C5)CC3)cc2OC)ncc1C(F)(F)F (stereo not drawn)"
measure = "IC50"
result = "2.53 µM"


Proceed to the following item.
// IC50 value for CNC(=O)c1ccc(Nc2ncc(C(F)(F)F)c(NCc3nccnc3N(C)S(C)(=O)=O)n2)cc1 : > 10 µM

----------
# IC50 per record follows
System: BT-549
Assay: 3D spheroid assay BT-549
Assay type: cell-based
Settings: Homo sapiens, 96 h; BT-549, 4 days treatment; read-out: IC50 3D spheroid cell viability

Observe how each entry below is paired with its result.
[[record]]
molecule = "CNC(=O)c1cccc(C)c1Nc1nc(Nc2ccc(N3CCN(C4C5CC6CC4CC(O)(C6)C5)CC3)cc2OC)ncc1C(F)(F)F (stereo not drawn)"
system = "BT-549"
measure = "IC50"
result = "4.71 µM"

[[record]]
molecule = "CNC(=O)c1ccc(Nc2ncc(C(F)(F)F)c(NCc3nccnc3N(C)S(C)(=O)=O)n2)cc1"
system = "BT-549"
measure = "IC50"
result = "> 10 µM"


Field: next molecule
According to the records, this molecule CONC(=O)c1ccccc1Nc1cc(Nc2cc(C)nn2C(C)C)ncc1Cl displays IC50 of > 10 µM

----------
Experiment: Cytotoxicity on normal cell line WI38
Assay type: cell-based
Conditions: human, WI38 cells (normal cell line); read-out: Cytotoxicity on Normal Cell Lines IC50
Measure: pIC50
Just the number, please; pIC50 means minus log10 of the concentration in mol/L.

The recorded pIC50 for entry CNC(=O)c1cccc(C)c1Nc1nc(Nc2ccc(N3CCN(C4C5CC6CC4CC(O)(C6)C5)CC3)cc2OC)ncc1C(F)(F)F (stereo not shown) [SJP1602] equals 5.14

----------
Test: Pharmacokinetics in SD rats
Assay type: in vivo, rat
Conditions: rat, plasma; iv 5 mg/kg, male SD rats
Measure: Cmax
Remember to quote the unit after the number.

Cmax in this record for CNC(=O)c1cccc(C)c1Nc1nc(Nc2ccc(N3CCN(C4C5CC6CC4CC(O)(C6)C5)CC3)cc2OC)ncc1C(F)(F)F (stereo not shown) : 3890 ng/mL

----------
Assay: Cytotoxicity on normal cell line CCD-18Co
Format: cell-based
Details: human, CCD-18Co cells (normal cell line); read-out: Cytotoxicity on Normal Cell Lines IC50
pIC50: −log10 of the molar value.
Measure: pIC50

# pIC50 (molecule: CNC(=O)c1cccc(C)c1Nc1nc(Nc2ccc(N3CCN(C4C5CC6CC4CC(O)(C6)C5)CC3)cc2OC)ncc1C(F)(F)F (stereo not shown) [SJP1602] ) is < 5.00

----------
Assay: Pharmacokinetics in SD rats
Format: in vivo, rat
Conditions: rat, plasma; iv 5 mg/kg, male SD rats
Measure: Tmax (min)
Numbers only here, please. The scale is min.

CNC(=O)c1cccc(C)c1Nc1nc(Nc2ccc(N3CCN(C4C5CC6CC4CC(O)(C6)C5)CC3)cc2OC)ncc1C(F)(F)F (stereo not shown) has a reported Tmax of 16.8
